Listing of entries alongside the reported solubility at 5 h.
assay: Solubility test of drug substances in biorelevant media and free fraction calculation; format: physicochemical; settings: FaSSIF-V2; drug substance powder, 37℃, shaken 5 h, pH 6.5; read-out: Solubility in FaSSIF-V2

Cc1cnc(NC(=O)C2=C(O)c3ccccc3S(=O)(=O)N2C)s1 : 172 µg/mL

Note: attention shifts to another entry.
What measured solubility at 5 h goes with `O=C1[C@H](CC[C@H](O)c2ccc(F)cc2)[C@@H](c2ccc(O)cc2)N1c1ccc(F)cc1` ?
3.79 µg/mL

* * *

assay: Estimation of effective permeability (Peff) in the human small intestine from Caco-2 Papp
Endpoint Name: Papp (nm/s)
Just the number please, in nm/s, no unit attached.

What measured Papp goes with `O=C1[C@H](CC[C@H](O)c2ccc(F)cc2)[C@@H](c2ccc(O)cc2)N1c1ccc(F)cc1` ?
1210

* * *

test: In vitro dissolution test of tablets in biorelevant media (USP apparatus II paddle); assay type: physicochemical; details: FaSSIF-V2; for PK simulation; Zetia: infinity point of tablet dissolution test; Mobic: adopted from drug substance solubility test
Endpoint Name: solubility at 120 min (µg/mL)
Just the number please, in µg/mL, no unit attached.

What measured solubility at 120 min goes with `O=C1[C@H](CC[C@H](O)c2ccc(F)cc2)[C@@H](c2ccc(O)cc2)N1c1ccc(F)cc1` ?
4.93

* * *

test: Solubility test of drug substances in biorelevant media and free fraction calculation; format: physicochemical; conditions: blank FaSSIF-V2 (without surfactant); drug substance, medium without surfactant; read-out: Solubility in blank FaSSIF-V2
Endpoint Name: solubility at 5 h (µg/mL)
Just the number please, in µg/mL, no unit attached.

What measured solubility at 5 h goes with `Cc1cnc(NC(=O)C2=C(O)c3ccccc3S(=O)(=O)N2C)s1` ?
164

* * *

experiment: Solubility test of drug substances in biorelevant media and free fraction calculation; type: physicochemical; details: FeSSIF-V2, 37 °C, fessif, thermodynamic from solid; drug substance powder, 37℃, shaken 5 h, pH 5.8; read-out: Solubility in FeSSIF-V2
Endpoint Name: solubility at 5 h (µg/mL)
Just the number please, in µg/mL, no unit attached.

O=C1[C@H](CC[C@H](O)c2ccc(F)cc2)[C@@H](c2ccc(O)cc2)N1c1ccc(F)cc1 [Ezetimibe, ezetimibe] : 22.3

Note: attention shifts to another entry.
What measured solubility at 5 h goes with Cc1cnc(NC(=O)C2=C(O)c3ccccc3S(=O)(=O)N2C)s1 [Meloxicam, meloxicam] ?
42.7
